- target_entity: full-length MALT1 protein His-MALT1(1-824) (Homo sapiens)
- Construct: full-length MALT1 protein His-MALT1(1-824); His (N); made in house; host or cells: baculovirus-infected insect cells
- Sequence (Q9UDY8 whole entry): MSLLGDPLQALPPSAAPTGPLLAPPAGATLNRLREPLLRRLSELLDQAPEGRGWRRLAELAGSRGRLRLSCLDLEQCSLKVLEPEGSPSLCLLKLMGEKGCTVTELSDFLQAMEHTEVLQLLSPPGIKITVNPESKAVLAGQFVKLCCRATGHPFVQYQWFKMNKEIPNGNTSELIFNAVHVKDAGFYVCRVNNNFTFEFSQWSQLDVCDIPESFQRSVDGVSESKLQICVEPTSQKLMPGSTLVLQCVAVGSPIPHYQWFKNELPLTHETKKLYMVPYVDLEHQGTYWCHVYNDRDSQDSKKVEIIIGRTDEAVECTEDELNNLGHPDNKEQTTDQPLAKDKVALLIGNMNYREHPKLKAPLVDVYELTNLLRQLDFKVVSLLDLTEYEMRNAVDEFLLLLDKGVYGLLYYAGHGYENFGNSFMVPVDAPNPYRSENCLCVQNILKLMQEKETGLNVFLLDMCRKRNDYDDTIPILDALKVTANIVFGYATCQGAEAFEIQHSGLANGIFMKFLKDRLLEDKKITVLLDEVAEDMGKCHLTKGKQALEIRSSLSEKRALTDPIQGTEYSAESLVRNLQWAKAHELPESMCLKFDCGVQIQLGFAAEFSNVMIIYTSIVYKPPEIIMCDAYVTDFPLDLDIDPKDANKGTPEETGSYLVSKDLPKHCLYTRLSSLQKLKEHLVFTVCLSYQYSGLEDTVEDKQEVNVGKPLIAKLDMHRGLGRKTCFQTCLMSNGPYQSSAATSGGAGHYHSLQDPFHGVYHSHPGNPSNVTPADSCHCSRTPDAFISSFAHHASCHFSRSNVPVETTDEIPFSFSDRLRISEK
- test_description: MALT1 protease assay, Assay 2 (1 nM MALT1, Ac-LRSR-AMC substrate)
- Assay type: biochemical
- condition_label: 1 nM MALT1, 50 μM Ac-LRSR-AMC, 2 h pre-incubation, 8 hr incubation at RT
Entries annotated with measured IC50
measured_parameter: IC50

1) CC1(C)C[C@@H](C(=O)Nc2cnc(-n3nccn3)c(C#N)c2)c2cnc3cc(Cl)nn3c21 (single isomer, unassigned) [Example 106] ... 10 to 100 nM
2) CC(C)(O)c1ncc(NC(=O)[C@H]2CC3(CCC3)c3c2cnc2cc(F)nn32)cc1C(F)(F)F (single isomer, unassigned) [Example 152] ... 100 to 1000 nM
3) CC1(C)CC(C)(C(=O)Nc2cnc(-n3nccn3)c(Cl)c2)c2cnc3cc(Cl)nn3c21 (single isomer, unassigned) [Example 139] ... ≥ 1000 nM
4) CC1(C)CC(C(=O)Nc2cnc(-n3nccn3)c(C#N)c2)c2cnc3cc(C(F)F)nn3c21 (single isomer, unassigned) [Example 130] ... 10 to 100 nM
5) CC1(C)C[C@H](C(=O)Nc2cnc(OC(F)F)c(Cl)c2)c2cnc3cc(F)nn3c21 (single isomer, unassigned) [Example 77] ... < 10 nM
6) CC1(C)C[C@@H](C(=O)Nc2cnc(OC3CC3)c(C#N)c2)c2cnc3cc(F)nn3c21 (single isomer, unassigned) [Example 80] ... ≥ 1000 nM
7) CC1(C)CC(C(=O)Nc2cnc(OC3CC3)c(Cl)c2)c2cnc3cc(Cl)nn3c21 (single isomer, unassigned) [Example 75] ... 10 to 100 nM
8) Cc1cc(NC(=O)C2CC(C)(C)c3c2cnc2cc(F)nn32)cnc1-c1cnn(C)c1 (stereo not shown) [Example 178] ... ≥ 1000 nM
9) CC1(C)CC(C(=O)Nc2cc(C(F)F)c(-n3nccn3)c(=O)[nH]2)c2cnc3cc(Cl)nn3c21 (stereo not shown) [Example 61] ... 10 to 100 nM
10) N#Cc1cc(NC(=O)C2CC3(CC3)c3c2cnc2cc(F)nn32)cnc1OC(F)F (stereo not shown) [Example 82] ... 10 to 100 nM
11) CC1(C)C[C@@H](C(=O)Nc2cnc(-n3nccn3)c(C#N)c2)c2cnn3cc(C(F)F)nc3c21 (single isomer, unassigned) [Example 196] ... 100 to 1000 nM
12) CN(C(=O)c1ncc(NC(=O)[C@H]2CC(C)(C)c3c2cnc2cc(Cl)nn32)cc1C(F)F)C1CC1 (single isomer, unassigned) [Example 73] ... < 10 nM
13) CC1(C)CC(C(=O)Nc2cnc(OC(F)F)c(C#N)c2)c2cnc3c(F)c(F)nn3c21 (single isomer, unassigned) [Example 91] ... 10 to 100 nM
14) CC1(C)C[C@@H](C(=O)Nc2cnc(-n3nccn3)c(Cl)c2)c2cnn3cc(Cl)nc3c21 (single isomer, unassigned) [Example 194] ... 100 to 1000 nM
15) CC1(C)CC(C(=O)Nc2cnc(OC(F)F)c(Cl)c2)c2cnc3cc(F)nn3c21 (single isomer, unassigned) [Example 76] ... ≥ 1000 nM
16) Cn1nnnc1-c1ncc(NC(=O)[C@@H]2CC(C)(C)c3c2cnc2cc(Cl)nn32)cc1Cl (single isomer, unassigned) [Example 144] ... 10 to 100 nM
17) CC1(C)C[C@@H](C(=O)Nc2cnc(-n3ncc(C4COC4)n3)c(Cl)c2)c2cnc3cc(Cl)nn3c21 (single isomer, unassigned) [Example 110] ... 10 to 100 nM
18) C[C@@]1(C(F)(F)F)C[C@@H](C(=O)Nc2cnc(-n3nccn3)c(C(F)(F)F)c2)c2cnc3cc(Cl)nn3c21 (single isomer, unassigned) [Example 53] ... 100 to 1000 nM
19) CC1(C)C[C@@H](C(=O)Nc2cnc(-n3nccn3)c(C(F)F)c2)c2cnc3cc(Cl)nn3c21 (single isomer, unassigned) [Example 46] ... ≥ 1000 nM
20) Cc1cc(NC(=O)[C@@H]2CC(C)(C)c3c2cnc2cc(F)nn32)cnc1-n1nccn1 (single isomer, unassigned) [Example 182] ... ≥ 1000 nM
21) CC1(C)CC(C(=O)Nc2cnc(-c3nnn(CCO)n3)c(Cl)c2)c2cnc3cc(Cl)nn3c21 (stereo not shown) [Example 123] ... 10 to 100 nM
22) CC1(C)CC(C(=O)Nc2cc(C(F)F)c(-c3ccno3)c(=O)[nH]2)c2cnc3cc(Cl)nn3c21 (stereo not shown) [Example 60] ... 100 to 1000 nM
23) CC1(C)C[C@@H](C(=O)Nc2ccnc(C(F)(F)F)c2)c2cnn3cc(C(F)F)nc3c21 (single isomer, unassigned) [Example 200] ... 100 to 1000 nM
24) CC1(C)CC(C(=O)Nc2cnc(C(=O)N3CC(F)(F)C3)c(C(F)(F)F)c2)c2cnc3cc(Cl)nn3c21 (stereo not shown) [Example 164] ... 100 to 1000 nM
25) CC1(C)CC(C(=O)Nc2cc(N=S(C)(C)=O)nc(C(F)(F)F)c2)c2cnc3cc(F)nn3c21 (single isomer, unassigned) [Example 128] ... 10 to 100 nM
